Entries annotated with measured TGI
# Test system: OVCAR-3 ovarian
# procedure text: NCI tumour cell line growth inhibition, 48 h

[
  {
    "molecule": "COC(=O)C(=O)C(C(=O)C(=O)Nc1cc([N+](=O)[O-])ccc1C#N)c1nc2ccccc2[nH]c1=O (stereo not given)",
    "measurement target": "OVCAR-3 ovarian",
    "TGI": "> 100 µM"
  },
  {
    "molecule": "Cc1cc2c(cc1Cl)SC(NNc1cnc3ccccc3n1)=NS2(=O)=O",
    "measurement target": "OVCAR-3 ovarian",
    "TGI": "> 100 µM"
  },
  {
    "molecule": "COC(=O)c1cc2c3c(cc(NCCN)c2[nH]1)N(C(=O)c1cc2cc(OC)c(OC)c(OC)c2[nH]1)CC3CCl (stereo not given)",
    "measurement target": "OVCAR-3 ovarian",
    "TGI": "0.569 µM"
  },
  {
    "molecule": "COC(=O)C(CCCCNC(=O)CNC(=O)OCc1ccccc1)NC(=O)C(CCCCNC(=O)CNC(=O)OCc1ccccc1)NC(=O)OCc1ccccc1 (stereo not given)",
    "measurement target": "OVCAR-3 ovarian",
    "TGI": "> 100 µM"
  },
  {
    "molecule": "c1ccc(-c2ccc(N=NN3CCCC3)cc2)cc1",
    "measurement target": "OVCAR-3 ovarian",
    "TGI": "> 100 µM"
  },
  {
    "molecule": "O=C(Nc1ccc(S(=O)(=O)N[C@@H](C(=O)O)c2ccccc2)cc1)c1ccc(F)cc1",
    "measurement target": "OVCAR-3 ovarian",
    "TGI": "> 100 µM"
  },
  {
    "molecule": "COC(=O)c1sc2ncc3c(c2c1N)CC(C)CC3 (stereo not given)",
    "measurement target": "OVCAR-3 ovarian",
    "TGI": "> 100 µM"
  },
  {
    "molecule": "O=c1c2cc3c(=O)n(CCc4ccccc4CO)c(=O)c3cc2c(=O)n1CCc1ccccc1CO",
    "measurement target": "OVCAR-3 ovarian",
    "TGI": "> 100 µM"
  },
  {
    "molecule": "Cc1ccc(-c2nc(C(Cl)Cl)n3nc(-c4ccccc4)cc3n2)cc1",
    "measurement target": "OVCAR-3 ovarian",
    "TGI": "0.586 µM"
  },
  {
    "molecule": "CC(=O)OCCOCBr",
    "measurement target": "OVCAR-3 ovarian",
    "TGI": "> 100 µM"
  }
]
